Test system: M14 melanoma
protocol_notes: NCI-60 one-dose screen, 48 h
assay_context: 10 µM unless noted
About 83,000 compounds went through this panel and 20% of them were active in at least one assay; those are over-represented in the sample as a whole. Active and inactive are the calls of the source. Rule for the calls: active = growth percent below 10; inactive = the rest.
Possible outcomes: active, inactive

# structure, label_class
measured = [
    ("O=C(CCCl)OCCOc1ccccc1", "inactive"),
    ("CN(C)CCOC(=O)Nc1ccc(Cc2ccc(NC(=O)OCCN(C)C)cc2)cc1", "active"),
    ("CCCCc1ccc2nc(NC(=O)OC)[nH]c2c1", "active"),
    ("ClCc1cccc2c(CCl)cccc12", "inactive"),
    ("FC(F)(F)c1cc(NC2=NCCN=C(Nc3cc(C(F)(F)F)cc(C(F)(F)F)c3)SS2)cc(C(F)(F)F)c1", "inactive"),
    ("C=CCOc1ccc(Cl)cc1Cl", "inactive"),
]
